- TARGET_OR_SYSTEM: glutamine synthetase (GS) from E. coli (Escherichia coli, UniProt P0A9C5)
- Sequence (P0A9C5 2-469): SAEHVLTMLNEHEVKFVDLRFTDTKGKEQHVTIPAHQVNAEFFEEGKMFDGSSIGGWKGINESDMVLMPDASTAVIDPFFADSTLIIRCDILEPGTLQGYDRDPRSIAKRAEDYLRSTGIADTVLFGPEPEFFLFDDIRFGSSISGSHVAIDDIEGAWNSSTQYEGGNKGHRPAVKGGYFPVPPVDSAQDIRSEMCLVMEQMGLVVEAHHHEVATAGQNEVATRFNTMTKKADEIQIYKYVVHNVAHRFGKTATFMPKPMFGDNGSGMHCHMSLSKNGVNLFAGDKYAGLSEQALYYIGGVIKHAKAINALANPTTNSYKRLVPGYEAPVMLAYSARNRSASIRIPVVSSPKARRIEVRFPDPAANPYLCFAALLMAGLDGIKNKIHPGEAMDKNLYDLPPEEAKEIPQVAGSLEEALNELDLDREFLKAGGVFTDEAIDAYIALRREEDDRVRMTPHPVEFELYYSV
pKi: −log10 of the molar value.
VALUE_KIND: pKi

> print(dat)
                                   compound                          target.or.system  value.kind  result
1  CP(=O)(O)CCC(N)C(=O)O (racemic) [PT, phosphinothricin, reference compound]  glutamine synthetase (GS) from E. coli (Escherichia coli, UniProt P0A9C5)         pKi    6.40

----------
- Test system: P. putida Aars1,2
- ASSAY: microbe, parasite or virus in culture
- Type: cell-based, Pseudomonas putida
- STUDY_CONDITIONS: read-out: concentration giving 50% inhibition
VALUE_KIND: IC50

> print(dat)
                            smi  value.kind    result
1  C[As](=O)(O)CC[C@H](N)C(=O)O        IC50  ~3000 nM
